The reported numbers originate from patent US20200397796A1.

# TARGET UNDER TEST: CYP 2C9 (Homo sapiens)
# Sequence (P11712 whole entry): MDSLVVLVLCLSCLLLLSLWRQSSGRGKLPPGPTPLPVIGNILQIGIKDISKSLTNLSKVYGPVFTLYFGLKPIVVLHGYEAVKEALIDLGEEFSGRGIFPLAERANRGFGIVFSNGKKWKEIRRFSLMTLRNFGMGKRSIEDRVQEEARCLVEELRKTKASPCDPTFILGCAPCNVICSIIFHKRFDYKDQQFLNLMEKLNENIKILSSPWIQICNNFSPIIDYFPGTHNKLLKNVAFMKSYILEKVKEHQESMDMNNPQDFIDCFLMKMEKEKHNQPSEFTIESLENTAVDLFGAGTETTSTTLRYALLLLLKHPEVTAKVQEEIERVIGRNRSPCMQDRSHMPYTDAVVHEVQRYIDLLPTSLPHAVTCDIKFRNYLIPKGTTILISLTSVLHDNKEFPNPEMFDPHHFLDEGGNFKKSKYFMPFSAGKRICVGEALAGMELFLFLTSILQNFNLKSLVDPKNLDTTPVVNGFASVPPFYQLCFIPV
pIC50: −log10 of the molar value.

COMPOUND	pIC50
N#Cc1cnc(Nc2cc(NCC3CNCCO3)c(C(F)(F)F)cn2)cn1 (stereo not shown) [SRA737]	4.30 to 5.00

====

# PROTOCOL SUMMARY: GLP 28-day repeat oral dose toxicity and toxicokinetics, mouse
# STUDY CONDITIONS: female, mouse, in vivo, po, 10 mg/kg/day

COMPOUND	RESULT UNITS	half-life
N#Cc1cnc(Nc2cc(NCC3CNCCO3)c(C(F)(F)F)cn2)cn1 (stereo not shown)	h	5.18

====

# PROTOCOL SUMMARY: Caco-2 permeability assay
# Type: in vitro ADME
# STUDY CONDITIONS: human, read-out: efflux ratio (A>B/B>A)
READOUT: efflux ratio at 10 μM

COMPOUND	RESULT
N#Cc1cnc(Nc2cc(NCC3CNCCO3)c(C(F)(F)F)cn2)cn1 (stereo not shown) [SRA737]	0.8
